biological target: Htc10-LBD (Vreelandella titanicae); test: biochemical; conditions: read-out: ΔTm (ºC) 10 mM solution
Sequence (L9UCI1 48-325): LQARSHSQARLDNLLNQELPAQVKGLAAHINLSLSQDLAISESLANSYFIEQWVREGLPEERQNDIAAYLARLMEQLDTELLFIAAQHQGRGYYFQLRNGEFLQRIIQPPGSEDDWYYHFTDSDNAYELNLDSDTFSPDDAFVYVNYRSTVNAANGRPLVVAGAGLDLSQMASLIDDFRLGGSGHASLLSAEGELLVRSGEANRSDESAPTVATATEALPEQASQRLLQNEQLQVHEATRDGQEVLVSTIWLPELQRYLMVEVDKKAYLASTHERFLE
// NB: equality with 3 °C counts as Not met; only ΔTm at 10000 µM strictly below is Met

[Q] Just wondering, is ΔTm at 10000 µM of Nc1nc2c(ncn2[C@@H]2O[C@H](CO)[C@@H](O)[C@H]2O)c(=O)[nH]1 [Guanosine] below 3 °C?
[A] Met

[Q] is_below(ΔTm at 10000 µM, 3 °C) for Cc1cn([C@H]2C[C@H](O)[C@@H](CO)O2)c(=O)[nH]c1=O [Thymidine] ?
[A] Met

[Q] Hello, is ΔTm at 10000 µM of the following compound strictly smaller than 3 °C? Cc1c[nH]c(=O)[nH]c1=O [Thymine]
[A] Met

[Q] Lab note: ΔTm at 10000 µM threshold 3 °C. Does this compound come in strictly under it? O=c1[nH]cnc2nc[nH]c12 [hypoxanthine]
[A] Not met

[Q] Dear colleague, could you confirm whether ΔTm at 10000 µM of O=c1[nH]c(=O)c2nc[nH]c2[nH]1 [Xanthine] falls below 3 °C? Thanks.
[A] Met

[Q] Problem: For the compound Nc1nc2nc[nH]c2c(=O)[nH]1 [guanine] , is ΔTm at 10000 µM under 3 °C?
[A] Not met
